# SYSTEM_TESTED: human IDO1 (Homo sapiens)
# Sequence (P14902 whole entry): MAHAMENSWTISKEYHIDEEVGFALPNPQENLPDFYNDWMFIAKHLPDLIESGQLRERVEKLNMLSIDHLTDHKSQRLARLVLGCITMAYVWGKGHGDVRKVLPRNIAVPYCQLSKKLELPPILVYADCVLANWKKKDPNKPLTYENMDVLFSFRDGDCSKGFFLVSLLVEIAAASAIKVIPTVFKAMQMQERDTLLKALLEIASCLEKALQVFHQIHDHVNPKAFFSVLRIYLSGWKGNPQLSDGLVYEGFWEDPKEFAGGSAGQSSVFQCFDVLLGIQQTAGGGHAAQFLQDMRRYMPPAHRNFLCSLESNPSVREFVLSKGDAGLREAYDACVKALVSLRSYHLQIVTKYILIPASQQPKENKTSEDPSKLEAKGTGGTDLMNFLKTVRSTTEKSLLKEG
# ASSAY_SUMMARY: Assessment of human IDO-1 inhibitory activity in HEK cells (human IDO1/HEK293 cells, kynurenine read-out with Ehrlich reagent, absorbance 490 nm)
# Assay type: cell-based
# Parameters: expressed in transfected cells
# MEASUREMENT_SETUP: HEK Human IDO-1 cellular assay
pIC50: −log10 of the molar value.
QUANTITY: pIC50

| COMPOUND | SYSTEM_TESTED | QUANTITY | VALUE_OBSERVED |
| --- | --- | --- | --- |
| CCC(CC(=O)O)c1ccc(N2CCOC[C@H]2C(C)C)c(NC(=O)Nc2cc(C)on2)c1 (single isomer, unassigned) | human IDO1 (Homo sapiens) | pIC50 | < 7.30 |
| CCC(CC(=O)O)c1ccc(N(CC(C)C)C2CCCCC2)c(Nc2ccc(OC(F)(F)F)cc2)c1 (single isomer, unassigned) | human IDO1 (Homo sapiens) | pIC50 | > 8.30 |
| CCC(CC(=O)O)c1ccc(N2C[C@@H](C)O[C@@H](C)C2)c(Nc2ccc3c(c2)OC(F)(F)O3)c1 (single isomer, unassigned) [Example 758] | human IDO1 (Homo sapiens) | pIC50 | < 7.30 |
